- Test system: HEK-293T
- PROCEDURE SUMMARY: Multiplex assay against HEK293T
- Assay type: toxicity, cell-based
- CONDITION PARAMETERS: human, 48 h, 10 µM, compound concentration 10 uM, replicate 1
Entries are grouped by Population Mitochondria Different-Phenotype (%) into these classes: class A = under 30%, class B = from 30% up to 60%, class C = 60% and over

{"COMPOUND": "COc1ccccc1N1CCN(CCCCNC(=O)c2ccc3ccccc3c2)CC1.Cl", "EXPERIMENTAL SYSTEM": "HEK-293T", "ANSWER LABEL": "class C"}
{"COMPOUND": "CN1CCN2c3ncccc3Cc3ccccc3C2C1 (configuration not stated)", "EXPERIMENTAL SYSTEM": "HEK-293T", "ANSWER LABEL": "class B"}
{"COMPOUND": "COc1cc(NC(=O)CCN2CCC(OC(=O)Nc3ccccc3-c3ccccc3)CC2)c(Cl)cc1CNC[C@H](O)c1ccc(O)c2[nH]c(=O)ccc12", "EXPERIMENTAL SYSTEM": "HEK-293T", "ANSWER LABEL": "class C"}
{"COMPOUND": "CN1CCN(c2nc3cc(C(F)(F)F)ccc3n3cccc23)CC1.O=C(O)/C=C\\C(=O)O.O=C(O)/C=C\\C(=O)O", "EXPERIMENTAL SYSTEM": "HEK-293T", "ANSWER LABEL": "class B"}
{"COMPOUND": "CC(=O)NCCc1c(Cc2ccccc2)[nH]c2ccccc12", "EXPERIMENTAL SYSTEM": "HEK-293T", "ANSWER LABEL": "class A"}
{"COMPOUND": "Cc1ccccc1C(=O)Nc1ccc(C(=O)N2CCCC(N(C)C)c3ccccc32)cc1.Cl (configuration not stated)", "EXPERIMENTAL SYSTEM": "HEK-293T", "ANSWER LABEL": "class C"}
{"COMPOUND": "O=C(NCC(=O)N1CC[C@H](N[C@H]2CC[C@@](O)(c3ccc(-c4ncccn4)cn3)CC2)C1)c1cccc(C(F)(F)F)c1", "EXPERIMENTAL SYSTEM": "HEK-293T", "ANSWER LABEL": "class B"}
{"COMPOUND": "COc1c(C)cc(NC(=O)c2nn(Cc3ccc(F)cc3)c3c2CN(C(=O)c2ccc[nH]2)C[C@]3(C)C(N)=O)cc1C", "EXPERIMENTAL SYSTEM": "HEK-293T", "ANSWER LABEL": "class C"}
{"COMPOUND": "O=C(NCCO)c1cccc(-c2cc(Nc3ccc(OC(F)(F)F)cc3)ncn2)c1", "EXPERIMENTAL SYSTEM": "HEK-293T", "ANSWER LABEL": "class B"}
{"COMPOUND": "CSCC[C@H](NC=O)C(=O)N[C@@H](CC(C)C)C(=O)N[C@@H](Cc1ccccc1)C(=O)O", "EXPERIMENTAL SYSTEM": "HEK-293T", "ANSWER LABEL": "class A"}
{"COMPOUND": "N#Cc1c(N)nc(SCc2csc(-c3ccc(Cl)cc3)n2)c(C#N)c1-c1ccc(OCCO)cc1", "EXPERIMENTAL SYSTEM": "HEK-293T", "ANSWER LABEL": "class C"}
{"COMPOUND": "CCCn1c(=O)c2[nH]c(C3CCCC3)nc2n(CCC)c1=O", "EXPERIMENTAL SYSTEM": "HEK-293T", "ANSWER LABEL": "class B"}
{"COMPOUND": "O=C(O)c1cc2ccccc2c(Cc2c(O)c(C(=O)O)cc3ccccc23)c1O", "EXPERIMENTAL SYSTEM": "HEK-293T", "ANSWER LABEL": "class A"}
{"COMPOUND": "CCCN1CCC[C@@H]2Cc3n[nH]cc3C[C@H]21.Cl [QUINPIROLE HYDROCHLORIDE]", "EXPERIMENTAL SYSTEM": "HEK-293T", "ANSWER LABEL": "class A"}
{"COMPOUND": "C[C@H]1[C@H]2CC[C@H]3[C@@H]4CC=C5C[C@@H](N(C)C)CC[C@]5(C)[C@H]4CC[C@]23CN1C", "EXPERIMENTAL SYSTEM": "HEK-293T", "ANSWER LABEL": "class A"}
{"COMPOUND": "CN(C)CCCc1cc(C(=O)Nc2ccc(-c3ccncc3)cc2)ccc1O.Cl.Cl", "EXPERIMENTAL SYSTEM": "HEK-293T", "ANSWER LABEL": "class A"}
